- Test target: T1, LILRB3-His
- T1 construct: also called His-tagged LILRB3; recombinant LILRB3 protein
- Experiment summary: ELISA on recombinant His-tagged protein, OD450
Metric: binding result

[
  {
    "Binder": "Antibody 4A9 (antibody, V domains shown, Mouse hybridoma mAb purified from ascites) VH: EIQLQQSGPELVKPGASVKVSCKASGSSFTDYNMYWVKQIHGKSLDWIGYIDPYNGRTTYNQKFKGKATLTVDKSSSTAFMHLNSLTSEDSAVYYCAGGDYFDYWGHGTSLTVSS VL: EIQMTQTTSSLSASLGDRVTISCSASQGISNYLNWFQQKPDGTVKLLIYYTSTLHSGVPSRFSGSGSGTDFSLTISNLDPEDFATYYCQQYSNLPYTFGGGTKLEIK",
    "Endpoint value": "no binding"
  },
  {
    "Binder": "Antibody 10B11 (antibody, V domains shown, Mouse hybridoma mAb purified from ascites) VH: EIQLQQSGPELVKPGASVKVSCKASGNSFTDNNIYWVKQSHGESLEWIGYIDPFNGRTTYNQKFKGKATLTVDKSSSTAFMHLNSLTSGDSAVYYCARGDYFNYWGQGTTLTVSS VL: EIQMTQTTSSLSASLGDRVTISCSASQGINNYLNWFQQKSDGTVKLLIYYTSSLHSGVPSRFSGSGSGTDYSLTISNLEPEDIAIYYCQQYSNLPFTFGGGTELEIK",
    "Endpoint value": "no binding"
  },
  {
    "Binder": "Antibody 14F1 (antibody, V domains shown, Mouse hybridoma mAb purified from ascites) VH: QVQLKESGPGLVAPSQSLSITCTVSGFSLTTYGVHWVRQPPGKGLEWLGVIWTGGSTNYNSALMSRLSIIKDNSKSQVFLKMNSLQTDDTAIYYCARGGYGHTMDYWGQGTSVTVSS VL: DIVMTQSHKFMSTSVGDRVSITCKASQDVSIAVAWYQQKPGQFPKLLIYSASYRYTGVPDRFTGGGSGTDFTFTISSVQAEDLAVYYCQQHYSTPFTFGSGTKLEIK",
    "Endpoint value": "no binding"
  }
]

Reference for the values: patent US20240109962A1
